target: d-enCas12a (Acidaminococcus sp., UniProt U2UMQ6 1-1307, E174R;S542R;K548R;D908A;E993A;D1235A); experiment: Spec-seq (native PAGE EMSA with sequencing of bound and unbound); 25 mM Tris-HCl pH 7.4, 150 mM KCl, 5 mM MgCl2, 10% glycerol, 1 mM DTT, 40 ng/uL salmon sperm DNA; 400 nM Cas12a, 480 nM crRNA, 50 nM library, 37 C 1 h; native PAGE at room temperature; high values mean tight binding; conditions: protein: recombinant;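 note: relative affinity from the bound to unbound sequence frequency ratio in Spec-seq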
Parameter: binding signal (lnKA)
Enter your answer as a number in lnKA; do not include the unit.

Lab book: binding signal of CTAA (dsDNA) DNA 1: GCTATCTAGTGCTCAGTACGCACTGCTAAAGGAAACTTCTGGCAGGACCAGGTCATGAGATCGGAAGAGCACACGTCTGAACTCCAGTCA DNA 2: TGACTGGAGTTCAGACGTGTGCTCTTCCGATCTCATGACCTGGTCCTGCCAGAAGTTTCCTTTAGCAGTGCGTACTGAGCACTAGATAGC RNA: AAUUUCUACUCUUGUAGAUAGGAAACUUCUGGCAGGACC noted as -5.62

New cases:
CCTG (dsDNA) DNA 1: GCTATCTAGTGCTCAGTACGCACTGCCTGAGGAAACTTCTGGCAGGACCAGGTCATGAGATCGGAAGAGCACACGTCTGAACTCCAGTCA DNA 2: TGACTGGAGTTCAGACGTGTGCTCTTCCGATCTCATGACCTGGTCCTGCCAGAAGTTTCCTCAGGCAGTGCGTACTGAGCACTAGATAGC RNA: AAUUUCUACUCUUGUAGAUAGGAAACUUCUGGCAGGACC has a reported binding signal of -5.7

binding signal recorded for this binder, CGCC (dsDNA) DNA 1: GCTATCTAGTGCTCAGTACGCACTGCGCCAGGAAACTTCTGGCAGGACCAGGTCATGAGATCGGAAGAGCACACGTCTGAACTCCAGTCA DNA 2: TGACTGGAGTTCAGACGTGTGCTCTTCCGATCTCATGACCTGGTCCTGCCAGAAGTTTCCTGGCGCAGTGCGTACTGAGCACTAGATAGC RNA: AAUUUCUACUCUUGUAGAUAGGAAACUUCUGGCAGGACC , is -1.48
